Data provenance is ChEMBL document CHEMBL3526153.

# assay-text: Retention time of the compound in Sprague-Dawley rat bile treated with gambogic acid at 4 mg/kg, iv measured over 24 hrs by LC-DAD-MS/MS analysis
# Assay type: ADME, organism-based
# Design: dose 4 mg/kg, route intravenous
# recorded-conditions: in vivo
Some compounds, each annotated with its measured Retention_time.

[
  {
    "compound": "CC(C)=CCC[C@]1(C)C=Cc2c(O)c3c(c(CC=C(C)C)c2O1)O[C@]12[C@H]4C[C@H](C(=O)[C@]1(C/C=C(/C)C(=O)O)OC4(C)C)C1OC12C3=O (stereo partly drawn)",
    "Retention_time": "43.8 min"
  },
  {
    "compound": "CC(C)=CCC[C@]1(C)C=Cc2c(O)c3c(c(CC=C(C)C)c2O1)O[C@]12[C@H]4C[C@H](C(=O)[C@]1(C/C=C(/C)C(=O)O[C@@H]1O[C@H](CO)[C@@H](O)[C@H](O)[C@H]1O)OC4(C)C)C1OC12C3=O (stereo partly drawn)",
    "Retention_time": "39 min"
  }
]

Now consider a different compound.
Retention_time for CC(C)=CCC[C@]1(C)C=Cc2c(O)c3c(c(CC=C(C)C)c2O1)O[C@]12C(C3=O)C(O)[C@@H]3C[C@H]1C(C)(C)O[C@@]2(C/C=C(/C)C(=O)O)C3=O (stereo partly drawn) is 39.5 min

* * *

# assay-text: Drug excretion in Sprague-Dawley rat feces at 2 mg/kg, iv measured within 48 hrs
# Format: ADME, organism-based
# Design: dose 2 mg/kg, route intravenous
# recorded-conditions: read-out: Drug excretion
endpoint-label: dose excreted at 48 h (%)
Please state the figure in %; there is no need to write the unit.

The value of dose excreted at 48 h measured for the molecule CC(C)=CCC[C@]1(C)C=Cc2c(O)c3c(c(CC=C(C)C)c2O1)O[C@]12C(=C[C@@H]4C[C@H]1C(C)(C)O[C@@]2(C/C=C(/C)C(=O)O)C4=O)C3=O [GAMBOGIC ACID] turned out to be 1.04

* * *

Each entry below carries its recorded Retention_time.
# assay-text: Retention time of the compound in Sprague-Dawley rat bile treated with gambogic acid at 4 mg/kg, iv measured over 24 hrs by LC-DAD-MS/MS analysis
# Format: ADME, organism-based
# Parameters: dose 4 mg/kg, route intravenous
# recorded-conditions: in vivo
Give just the numeric value; min need not be written.

[
  {
    "compound": "CC(C)=CCC[C@]1(C)C=Cc2c(O)c3c(c(CC=C(C)C)c2O1)O[C@]12C(=C[C@@H]4C[C@H]1C(C)(C)O[C@@]2(C/C=C(/C)C(=O)O[C@@H]1O[C@H](C(=O)O)[C@@H](O)[C@H](O)[C@H]1O)C4=O)C3=O",
    "endpoint-result": 23.6
  },
  {
    "compound": "CC(C)=CCC[C@]1(C)C=Cc2c(O)c3c(c(CC=C(C)C)c2O1)O[C@]12C(C3=O)C(O[C@@H]3O[C@H](CO)[C@@H](O)[C@H](O)[C@H]3O)[C@@H]3C[C@H]1C(C)(C)O[C@@]2(C/C=C(/C)C(=O)O)C3=O (some centres undefined)",
    "endpoint-result": 38.7
  },
  {
    "compound": "CC(C)=CCC[C@]1(C)C=Cc2c(O)c3c(c(CC=C(C)C)c2O1)O[C@]12C(C3=O)C(SC[C@H](NC(=O)CC[C@H](N)C(=O)O)C(=O)NCC(=O)O)[C@@H]3C[C@H]1C(C)(C)O[C@@]2(C/C=C(/C)C(=O)O)C3=O (some centres undefined)",
    "endpoint-result": 5.7
  }
]

// next item, Retention_time requested
Looking up CC(C)=CCC[C@]1(C)C=Cc2c(O)c3c(c(CC=C(C)C)c2O1)O[C@]12C(=C[C@@H]4C[C@H]1C(C)(C)O[C@@]2(C/C=C(/C)C(=O)O[C@@H]1O[C@H](CO)[C@@H](O)[C@H](O)[C@H]1O)C4=O)C3=O , I see its Retention_time listed as 40.3
